Each record here notes measured percent inhibition of viability.
test system: IMC-1 (IL-2 20 ng/mL); test: percent inhibition of viability; higher = more inhibition; conditions: 72 h; 1000 nM;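 also: normalised to DMSO-only wells as negative and benzethonium chloride as positive control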
The reply should be a number in %, with the unit left off.

The cases that follow already have their percent inhibition of viability on record.
O=C(O)c1ccc(Nc2ncc3c(n2)-c2ccc(Cl)cc2C(c2c(F)cccc2F)=NC3)cc1 [MLN-8054] (max concentration tested 10000 nM); 27.9
O=C(Nc1ccc2[nH]nc(-c3ccncc3)c2c1)[C@@H]1CCN(CC(=O)N2CCN(c3ccc(-c4ncccn4)cc3)CC2)C1 (max concentration tested 10000 nM); -10.1
C=CC[C@@H]1/C=C(\C)C[C@H](C)C[C@H](OC)[C@H]2O[C@@](O)(C(=O)C(=O)N3CCCC[C@H]3C(=O)O[C@H](/C(C)=C/[C@@H]3CC[C@@H](O)[C@H](OC)C3)[C@H](C)[C@@H](O)CC1=O)[C@H](C)C[C@@H]2OC [Tacrolimus] (max concentration tested 10000 nM); -2.11

The compound OC[C@H]1O[C@@H](n2cnc3c2N=CNC[C@H]3O)C[C@@H]1O [Pentostatin] (max concentration tested 10000 nM) showed percent inhibition of viability equal to 0.79

The compound CC1=C(/C=C/C(C)=C/C=C/C(C)=C/C(=O)O)C(C)(C)CCC1 [Tretinoin] (max concentration tested 10000 nM) showed percent inhibition of viability equal to -15.6
